Hello, the source for this data is patent US20250214991A1, in case you need it.

biological target: IKZF1 (Homo sapiens (Human), UniProt Q13422+Q96SW2); assay: In vitro IKZF1 HiBit Assay (HEK293T Flp-in-HiBiT-IKZF1 stable cell line); format: cell-based; conditions: HEK-293T; HEK293T Flp-in-HiBiT-IKZF1 stable cell line, 6 hrs incubation; read-out: IKZF1 HiBit Dmax (%)
Sequence (Q13422 whole entry): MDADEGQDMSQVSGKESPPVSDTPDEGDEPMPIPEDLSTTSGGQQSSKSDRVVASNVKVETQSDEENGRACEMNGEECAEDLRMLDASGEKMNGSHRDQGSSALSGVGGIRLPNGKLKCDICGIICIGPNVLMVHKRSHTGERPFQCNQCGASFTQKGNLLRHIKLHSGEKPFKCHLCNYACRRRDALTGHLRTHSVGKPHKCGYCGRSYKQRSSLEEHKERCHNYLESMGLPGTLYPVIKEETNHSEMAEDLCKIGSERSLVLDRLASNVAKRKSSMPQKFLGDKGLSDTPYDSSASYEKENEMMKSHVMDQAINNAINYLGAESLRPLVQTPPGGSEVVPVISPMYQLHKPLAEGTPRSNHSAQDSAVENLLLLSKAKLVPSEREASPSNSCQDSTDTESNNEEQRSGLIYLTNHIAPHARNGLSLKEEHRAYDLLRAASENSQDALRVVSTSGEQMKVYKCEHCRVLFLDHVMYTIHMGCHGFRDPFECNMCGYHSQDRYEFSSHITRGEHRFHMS
Sequence (Q96SW2 whole entry): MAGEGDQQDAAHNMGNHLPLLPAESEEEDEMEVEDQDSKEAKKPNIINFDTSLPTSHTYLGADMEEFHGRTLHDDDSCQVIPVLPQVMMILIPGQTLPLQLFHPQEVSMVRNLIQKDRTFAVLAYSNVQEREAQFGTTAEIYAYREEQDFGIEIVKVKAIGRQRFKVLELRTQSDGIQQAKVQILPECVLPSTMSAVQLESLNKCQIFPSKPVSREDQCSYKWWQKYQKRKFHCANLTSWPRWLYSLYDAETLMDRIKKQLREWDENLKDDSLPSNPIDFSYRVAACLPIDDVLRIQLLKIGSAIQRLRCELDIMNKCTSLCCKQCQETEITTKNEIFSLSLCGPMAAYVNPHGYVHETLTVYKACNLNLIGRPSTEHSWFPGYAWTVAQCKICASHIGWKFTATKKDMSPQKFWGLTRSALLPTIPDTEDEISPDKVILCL
Sequence (Q16531 2-1140 partner): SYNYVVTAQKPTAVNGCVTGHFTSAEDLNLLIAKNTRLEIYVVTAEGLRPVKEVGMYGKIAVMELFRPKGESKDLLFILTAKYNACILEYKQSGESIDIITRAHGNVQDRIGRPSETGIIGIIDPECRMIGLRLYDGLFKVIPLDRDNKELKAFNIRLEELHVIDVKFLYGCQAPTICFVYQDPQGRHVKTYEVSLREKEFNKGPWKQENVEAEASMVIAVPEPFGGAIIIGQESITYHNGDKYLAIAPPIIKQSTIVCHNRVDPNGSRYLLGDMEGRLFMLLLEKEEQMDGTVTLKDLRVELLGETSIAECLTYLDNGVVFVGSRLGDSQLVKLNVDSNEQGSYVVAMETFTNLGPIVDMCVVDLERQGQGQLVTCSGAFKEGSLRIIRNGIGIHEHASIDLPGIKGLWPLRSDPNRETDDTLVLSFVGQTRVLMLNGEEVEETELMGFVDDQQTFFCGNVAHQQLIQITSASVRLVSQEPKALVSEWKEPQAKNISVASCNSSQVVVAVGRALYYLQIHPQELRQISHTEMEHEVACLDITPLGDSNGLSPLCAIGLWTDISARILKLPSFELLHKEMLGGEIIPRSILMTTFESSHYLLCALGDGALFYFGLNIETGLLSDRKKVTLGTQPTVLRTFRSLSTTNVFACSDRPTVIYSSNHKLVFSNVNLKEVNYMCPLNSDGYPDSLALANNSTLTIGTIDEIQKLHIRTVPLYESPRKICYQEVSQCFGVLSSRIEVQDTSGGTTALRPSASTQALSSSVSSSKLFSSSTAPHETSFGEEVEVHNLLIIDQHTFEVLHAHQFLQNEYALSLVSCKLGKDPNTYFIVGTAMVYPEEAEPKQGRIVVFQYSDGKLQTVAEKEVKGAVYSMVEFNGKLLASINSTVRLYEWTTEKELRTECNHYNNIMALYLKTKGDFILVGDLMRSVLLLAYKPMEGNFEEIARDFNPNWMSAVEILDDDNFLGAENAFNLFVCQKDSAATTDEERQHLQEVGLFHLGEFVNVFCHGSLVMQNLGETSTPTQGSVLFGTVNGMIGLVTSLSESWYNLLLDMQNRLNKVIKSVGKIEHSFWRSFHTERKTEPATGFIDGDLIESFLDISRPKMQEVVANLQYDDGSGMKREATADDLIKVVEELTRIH
Result type: Dmax

These recorded examples may help you get a feel for the data.
Problem: Query the reported Dmax for IKZF1 (Homo sapiens (Human), UniProt Q13422+Q96SW2); item: O=C1CCC(N2Cc3cc(-c4cc(CN5CCCC5)c5ccccc5n4)ccc3C2=O)C(=O)N1 (stereo not shown)
Solution: 20 to 40%

Problem: Can you handle Cc1nc2c(CN3CCCC3)cc(-c3ccc4c(c3)CN(C3CCC(=O)NC3=O)C4=O)nc2o1 (stereo not shown) next?
Solution: < 20%

Lab note: each compound below needs its Dmax filled in.
1. O=C1CCC(N2Cc3c(ccc(-c4cc(CN5CCCC5)c5ccn(C6CS(=O)(=O)C6)c5n4)c3Cl)C2=O)C(=O)N1 (stereo not shown)
2. O=C1CCC(N2Cc3cc(-c4cc(CN5CCC(CO)CC5)c5ccn(C6CC6)c5n4)ccc3C2=O)C(=O)N1 (stereo not shown)

Solution:
["< 20%", "20 to 40%"]
